Assay: qHTS assay for small molecule agonists of the antioxidant response element (ARE) signaling pathway (AID 743202); further: on the % scale 0 is the no-effect control and ±100 the full control effect
Settings: HepG2 ARE-bla reporter, beta-lactamase FRET, 16 h; series mostly up to 73.3 µM
Results filed as inconclusive are left out. Calls of active or inactive are those of the source. The call rests on the fitted dose curve; in most records, active means well fitted activation curve with a large enough effect in the signal ratio in the repeat runs (not every such curve was filed as active); inconclusive means weak or mixed curves, or effect the other way; inactive means no such curve, though single readings can be large or run the other way; the % refers to the signal ratio.
assay.readout: activation

O=C(O)CNCC(=O)O
-1.79% [at 8.36 µM] (inactive)
NC(N)=NCCC[C@H](N)C(=O)O
0.601% [at 8.36 µM] (inactive)
C/C=C/C(=O)CC
-1.61% [at 18.1 µM] (inactive)
CN(C)c1ccc(/C=C/c2ccc([N+](=O)[O-])cc2)cc1
-18.5% [at 8.36 µM] (inactive)

###

Target: Cytochrome P450 1A2 (Homo sapiens) (UniProt P05177)
Sequence (P05177 whole entry, looked up): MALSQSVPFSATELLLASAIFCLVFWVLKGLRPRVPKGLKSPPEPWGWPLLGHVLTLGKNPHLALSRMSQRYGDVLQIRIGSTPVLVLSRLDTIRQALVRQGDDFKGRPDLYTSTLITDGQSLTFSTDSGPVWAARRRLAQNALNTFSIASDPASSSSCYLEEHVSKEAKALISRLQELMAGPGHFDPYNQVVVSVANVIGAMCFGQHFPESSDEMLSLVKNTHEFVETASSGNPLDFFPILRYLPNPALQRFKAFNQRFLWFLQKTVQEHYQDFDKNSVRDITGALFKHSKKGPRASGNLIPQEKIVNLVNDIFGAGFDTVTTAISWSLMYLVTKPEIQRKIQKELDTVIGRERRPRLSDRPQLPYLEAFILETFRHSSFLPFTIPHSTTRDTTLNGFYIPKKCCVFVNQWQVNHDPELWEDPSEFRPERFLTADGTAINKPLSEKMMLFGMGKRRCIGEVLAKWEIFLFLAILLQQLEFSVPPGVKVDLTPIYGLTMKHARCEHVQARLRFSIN
Assay: Cytochrome P450 Family 1 Subfamily A Member 2 (CYP1A2) small molecule antagonists: luciferase reporter qHTS assay (AID 1671199); further: nearly all actives have a fitted effect of over 50% in size
Details: P450-Glo CYP1A2 enzyme, luciferin luminescence, 1 h; series mostly up to 53 µM
Results filed as inconclusive are left out. The source made the active and inactive calls. Calls follow the shape of the dose curve; as a rule, active = well fitted inhibition curve with a large enough effect in the repeat runs; inconclusive = weak or mixed curves; inactive = no such curve, though single readings can be large or run the other way.
Outcomes: true (1) (active), false (0) (inactive)

CCOc1ccc(N=Nc2ccc(/C=C/c3ccc(N=Nc4ccc(OCC)cc4)cc3S(=O)(=O)O)c(S(=O)(=O)O)c2)cc1
true (1)
COc1ccnc(CS(=O)c2nc3ccc(OC(F)F)cc3[nH]2)c1OC (stereo not given)
true (1)
NC(=O)C(c1ccccc1)(c1ccccc1)[C@@H]1CCN(CCc2ccc3c(c2)CCO3)C1
false (0)
CCOc1ccc(N)c([N+](=O)[O-])c1
true (1)
CC(C)(CO)[N+](=O)[O-]
false (0)
O=[N+]([O-])c1ccc2[nH]ncc2c1
true (1)
CN1Cc2cc(C(=O)N3CCC(C4CCNCC4)CC3)ccc2NC(CC(=O)O)C1=O (stereo not given)
false (0)
CCCC(=O)Nc1ccc(O)c(C(C)=O)c1
true (1)
C[N+]1(CC2COC(c3ccccc3)(C3CCCCC3)O2)CCCCC1 (stereo not given)
false (0)
C=C(C)C(=O)OCCOCC
true (1)
CC(=O)c1cccc([N+](=O)[O-])c1
true (1)
C=C(C)C(=O)OCCO
false (0)
Nc1cccc([N+](=O)[O-])c1
true (1)
OC(CN1CCC(Cc2ccc(F)cc2)CC1)c1ccc(Cl)cc1 (stereo not given)
false (0)
CCCCCC[C@@H](O)C/C=C\CCCCCCCC(=O)OC
true (1)
CCCCC1=NC2(CCCC2)C(=O)N1Cc1ccc(-c2ccccc2-c2nn[nH]n2)cc1
false (0)
OC(C#CCN1CCCC1)(c1ccccc1)c1ccccc1
false (0)
CCCCC(CC)COC(=O)CCCCCCCCC(=O)OCC(CC)CCCC (stereo not given)
true (1)
C[C@@H]1C[C@H]2[C@@H]3CCC4=CC(=O)C=C[C@]4(C)[C@@]3(F)[C@@H](O)C[C@]2(C)[C@@]1(O)C(=O)COC(=O)c1ccncc1
false (0)
c1ccc(-c2ccccn2)nc1
true (1)
C=CC1CC2C=CC1C2 (stereo not given)
false (0)
CCOC(=O)Cc1cccc2ccccc12
true (1)
C=C1C(=C/C=C2\CCC[C@]3(C)[C@@H]([C@H](C)/C=C/[C@@H](O)C4CC4)CC[C@@H]23)C[C@@H](O)C[C@@H]1O
false (0)
O=C(Cl)c1cc(C(=O)Cl)cc(C(=O)Cl)c1
true (1)
COc1ccc(C(=O)c2ccc(OC)cc2O)c(O)c1
true (1)
